- Measurement protocol: Metabolic stability in human liver microsomes
- Assay type: in vitro ADME
- Recorded conditions: human, microsomes; in vitro half-life; 0.5 mg/mL HLM, 0.25 μM test compound, 2 mM NADPH, pH 7.4, 37° C., 0-30 minutes

Compound: [2H]C([2H])([2H])C1(C([2H])([2H])[2H])[C@@H]2[C@@H](C(=O)NC(CC3CCC3)C(=O)C(N)=O)N(C(=O)[C@@H](NC(=O)NC(C)(C)C)C(C)(C)C)C[C@@H]21 (stereo partly shown) [Compound 134]
half-life at 0.25 μM: 19.1 min

====

Each record here notes measured half-life at 0.25 μM.
- Measurement protocol: Metabolic stability in human liver microsomes
- Assay type: in vitro ADME
- Recorded conditions: human, human liver microsomes; in vitro half-life; 0.5 mg/mL HLM, 0.25 μM test compound, 2 mM NADPH, pH 7.4, 37° C., 0-30 minutes

Compound: [2H]C([2H])([2H])C1(C([2H])([2H])[2H])[C@@H]2[C@@H](C(=O)NC(CC3CCC3)C(=O)C(N)=O)N(C(=O)[C@@H](NC(=O)NC(C([2H])([2H])[2H])(C([2H])([2H])[2H])C([2H])([2H])[2H])C(C([2H])([2H])[2H])(C([2H])([2H])[2H])C([2H])([2H])[2H])C[C@@H]21 (stereo partly shown) [Compound 103]
half-life at 0.25 μM [min]: 25

Compound: [2H]C([2H])([2H])C1(C([2H])([2H])[2H])[C@@H]2[C@@H](C(=O)NC(C(=O)C(N)=O)C([2H])([2H])C3([2H])C([2H])([2H])C([2H])([2H])C3([2H])[2H])N(C(=O)[C@@H](NC(=O)NC(C)(C)C)C(C)(C)C)C[C@@H]21 (stereo partly shown) [Compound 130]
half-life at 0.25 μM [min]: 31.4

Compound: [2H]C([2H])([2H])C1(C([2H])([2H])[2H])[C@@H]2[C@@H](C(=O)NC(C(=O)C(N)=O)C([2H])([2H])C3([2H])C([2H])([2H])C([2H])([2H])C3([2H])[2H])N(C(=O)[C@@H](NC(=O)NC(C([2H])([2H])[2H])(C([2H])([2H])[2H])C([2H])([2H])[2H])C(C([2H])([2H])[2H])(C([2H])([2H])[2H])C([2H])([2H])[2H])C[C@@H]21 (stereo partly shown) [Compound 158]
half-life at 0.25 μM [min]: 37.2

Compound: [2H]C1([2H])C([2H])([2H])C([2H])(CC(NC(=O)[C@@H]2[C@@H]3[C@H](CN2C(=O)[C@@H](NC(=O)NC(C)(C)C)C(C)(C)C)C3(C)C)C(=O)C(N)=O)C1([2H])[2H] (stereo partly shown) [Compound 157]
half-life at 0.25 μM [min]: 26.6

Compound: [2H]C([2H])(C(NC(=O)[C@@H]1[C@@H]2[C@H](CN1C(=O)[C@@H](NC(=O)NC(C)(C)C)C(C)(C)C)C2(C)C)C(=O)C(N)=O)C1([2H])C([2H])([2H])C([2H])([2H])C1([2H])[2H] (stereo partly shown) [Compound 154]
half-life at 0.25 μM [min]: 28.7

Compound: [2H]C([2H])([2H])C(NC(=O)N[C@H](C(=O)N1C[C@H]2[C@@H]([C@H]1C(=O)NC(CC1CCC1)C(=O)C(N)=O)C2(C)C)C(C([2H])([2H])[2H])(C([2H])([2H])[2H])C([2H])([2H])[2H])(C([2H])([2H])[2H])C([2H])([2H])[2H] (stereo partly shown) [Compound 109]
half-life at 0.25 μM [min]: 23.2

Compound: CC(C)(C)NC(=O)NC(C(=O)N1CC2C(C1C(=O)NC(CC1CCC1)C(=O)C(N)=O)C2(C)C)C(C)(C)C (stereo not shown) [Boceprevir]
half-life at 0.25 μM [min]: 19
